Assay: plasmodial surface anion channel blockers, osmotic lysis – cell-based, P. falciparum Indochina, OD700, 1 h, primary screen (AID 1154)
Details: P. falciparum Indochina infected RBC osmotic lysis, called active from +8 up or from −8 down
Calls of active or inactive are those of the source.
Tick one outcome: active, inactive

1) COC(=O)[C@@]1(Cc2ccc(F)cc2)[C@H]2c3cc(C(=O)N4CCCC4)n(CCc4ccccn4)c3C[C@H]2CN1C(=O)c1ccccc1    inactive
2) CC(=O)c1ccc(C(O)C2C=CC3C(=O)N(c4ccccc4)C(=O)C3N2Nc2ccc(C(C)C)cc2)cc1 (centres undefined)    active
3) Cc1ccc(C(C)CC(O)C2C=CC3C(=O)N(C)C(=O)C3N2Nc2ccccc2)o1 (centres undefined)    inactive
4) COc1ccc([Si](C)(C)[C@H]2[C@H](CCO)O[C@@]3(C(=O)N(Cc4cccc(N5C(=O)c6ccccc6Oc6ccccc65)c4)c4ccccc43)[C@@H]2C)cc1    inactive
5) O=C1NC(=O)C2C1C=CC(C(O)c1ccc([N+](=O)[O-])cc1)N2Nc1ccccn1 (centres undefined)    inactive
6) COc1ccc([Si](C)(C)[C@@H]2[C@@H](CC(=O)N(CCO)Cc3ccccc3)O[C@]3(C(=O)N(Cc4ccc(N5C(=O)c6cccc7cccc5c67)cc4)c4ccccc43)[C@H]2C)cc1    inactive
7) COc1ccc([Si](C)(C)[C@H]2[C@H](CCO)O[C@@]3(C(=O)N(Cc4cccc(N(C=O)c5ccccc5)c4)c4ccccc43)[C@@H]2C)cc1    inactive
8) CCOC(=O)C[C@H]1[C@H](OC(=O)c2cc3ccccc3oc2=O)[C@@H](NC(=O)CC(C)C)c2cc(OCCCO)ccc2N1C(=O)Cc1ccc(OC)cc1    inactive
9) COCCCNC(=O)[C@@H]1c2ccccc2C(=O)N(Cc2ccc(OC(F)(F)F)cc2)[C@H]1c1ccc(CO)cc1    inactive
10) Cc1ccccc1C(O)C1C=CC2C(=O)N(c3ccccc3)C(=O)C2N1Nc1ccccc1 (centres undefined)    active

[Q] Returns: the outcome recorded for COC(=O)[C@@]1(Cc2ccccc2)[C@H]2c3cc(C(=O)N(C)C)n(Cc4ccc(S(C)(=O)=O)cc4)c3C[C@H]2CN1C(=O)c1ccccc1 in this assay.
[A] inactive

[Q] How did this test come out for CC(C)NC(=O)[C@@H]1c2ccccc2C(=O)N(Cc2ccc(OC(F)(F)F)cc2)[C@H]1c1ccc(CO)cc1 ?
[A] inactive

[Q] How did this test come out for Cc1ccc(S[C@]2(C(=O)NCc3ccccc3)CC(=O)N(Cc3ccccc3C(F)(F)F)[C@@H]2c2ccc(CO)cc2)cc1 ?
[A] inactive

====

Experiment: JC-1 mitochondrial signal, unstimulated HepG2 cells – cell-based, JC-1 fluorescence, 24 h, 100 nL compound, profiling panel (AID 1167); note: test concentration not given here
Settings: HepG2 mitochondrial potential, higher = more signal
Let's look at some molecules and their measured z-score.
Answer as a number with no unit attached.

1. N#Cc1ccc(-c2cccc(=O)o2)cc1    -0.875

[Q] Using the record for CC[C@@H]1C=C(C(=O)O)[C@H](c2ccc(OC)cc2)N1S(=O)(=O)c1ccc(C)cc1 , report its z-score.
[A] -0.955

[Q] Form field: reported z-score of COC(=O)[C@@]1(Cc2ccccc2)[C@H]2c3cc(C(=O)N(C)C)n(CCO)c3C[C@H]2CN1C(=O)c1ccccc1
[A] -0.92

[Q] z-score lookup needed for CCOC(=O)C1=C[C@@H](C(C)(C)C)N(S(=O)(=O)c2ccc(C)cc2)[C@H]1c1ccc(C#N)cc1 , thanks.
[A] 1.63

[Q] Reported z-score for CCCC[C@H]1OB(O)C[C@H]2C1=C(COc1ccccc1)C[C@H]1C(=O)C=CC(=O)[C@H]12 : what is it?
[A] -1.59

[Q] // z-score lookup, key: N#Cc1ccc(C(O)C2C=CC3C(=O)NC(=O)C3N2Nc2ccc(Cl)cc2Cl)cc1 (stereo unspecified)
[A] -1.35

[Q] Item COC(=O)[C@]1(CCC(=O)OC(C)(C)C)N=C(c2ccc(OCCCO)cc2)O[C@@H]1c1ccccc1N=[N+]=[N-] has what recorded z-score?
[A] 0.874

[Q] Param item = CC(=O)OCC1C2CC[C@H]3C(OCc4ccc(F)cc4C(F)(F)F)OC[C@]4(C)[C@H]3C2=C(CN4C(=O)OC(C)(C)C)[C@H](C)C1COC(C)=O (stereo partly specified) ; retrieve measured z-score.
[A] 2.61

====

Biological target: Epidermal growth factor receptor (Homo sapiens)
Test: compounds binding epidermal growth factor receptor – biochemical, small-molecule microarray, 635 nm fluorescence, primary screen (AID 1104);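 note: score merges 667 nm emission intensity with spot signal to noise over triplicate slides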
Conditions: EGFR binding, higher = more signal
Entry class follows composite z-score: low (below -0.07), middle (-0.07 to below 0.2), high (0.2 or more)

1) C=CCC(OC(C)=O)[C@@H]1[C@@H](N(Cc2cccc3ccccc23)C(=O)Cc2ccc(OC)cc2)c2cc(OCCCO)ccc2N1C(=O)c1ccc2ccccc2c1 (stereo not given in full)    middle
2) COc1ccc(C(O)C2C=CC3C(=O)NC(=O)C3N2Nc2ccc(Cl)cc2Cl)c2ccccc12 (stereo not given)    low
3) O=C1O[C@@H](c2ccccc2)[C@@H](c2ccccc2)N2[C@@H](c3ccccc3OCCO)[C@]3(C(=O)Nc4ccc(C#CCCO)cc43)[C@@H](C(=O)NC[C@H](O)c3ccccc3)[C@H]12    high
4) Cc1ccc(S[C@]2(C(=O)NC3CC3)CC(=O)N(C(C)C)[C@@H]2c2ccc(CO)cc2I)cc1    low
5) O=C1C2C=CC(C(O)C3CCCCC3)N(n3cnnc3)C2C(=O)N1Cc1ccccc1 (stereo not given)    middle
6) CN(C)c1ccc(C(O)C2C=CC3C(=O)N(Cc4ccccc4)C(=O)C3N2n2cnnc2)cc1 (stereo not given)    high

[Q] Returns: class label. Input: COCCOC(=O)N1C(=O)[C@@]2(c3cc(C#CCCO)ccc31)[C@H](C(N)=O)[C@H]1C(=O)O[C@H](c3ccccc3)[C@H](c3ccccc3)N1[C@@H]2c1ccccc1OCCO
[A] high

[Q] Into which category would you place C=C(CCCC)C(=O)CC[C@H](OC(=O)c1ccccc1-c1ccccc1C(=O)O)c1ccc(OCCO)cc1 ?
[A] middle

[Q] Dear colleague, I would appreciate it if you could identify the bin for COc1cc(C(O)C2C=CC3C(=O)N(c4ccccc4)C(=O)C3N2Nc2ccccc2)cc(OC)c1OC (stereo not given) and reply at your convenience.
[A] low

[Q] Bin? C=CCC(OC(C)=O)[C@@H]1[C@@H](N(Cc2ccc(-c3cccc(C(F)(F)F)c3)o2)C(=O)c2ccc(-c3ccccc3)cc2)c2cc(OCCCO)ccc2N1C(=O)c1ccc2ccccc2c1 (stereo not given in full)
[A] middle

[Q] Exam item: assign COC(=O)[C@H](Cc1ccc(O)cc1)N[C@@H](/C=C/C1CC1)[C@H](O)Cc1ccccc1 to the correct category.
[A] low

[Q] Sort COc1ccc([Si](C)(C)[C@H]2[C@H](CCO)O[C@@]3(C(=O)N(Cc4ccc(NC(=O)[C@H](C)O)cc4)c4ccccc43)[C@@H]2C)cc1 into one of the categories.
[A] middle

[Q] Which band does CCOC(=O)C[C@H]1[C@H](OC(=O)Cc2ccc3c(c2)OCO3)[C@@H](NC(=O)Cc2ccc(OC)cc2)c2cc(OCCCO)ccc2N1C(=O)Cc1ccc(OC)cc1 fall in?
[A] low

[Q] Returns: class label. Input: CC(=O)c1ccc(C(O)C2C=CC3C(=O)N(c4ccccc4)C(=O)C3N2Nc2ccc(C(C)C)cc2)cc1 (stereo not given)
[A] high

[Q] Lab log: CCCCC(O)C1C=CC2C(=O)N(c3ccccc3)C(=O)C2N1Nc1ccc(C#N)cc1 (stereo not given) — assign composite z-score category
[A] middle

====

Test system: Chordin-like protein 2 (CHRDL2)
Assay: compounds binding chordin-like 2 – biochemical, small-molecule microarray, 635 nm fluorescence, primary screen (AID 1126);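 note: printed compound slides probed with Chrdl2 protein at 4 µg/mL for 1 h at 4 C; score merges 667 nm emission intensity with signal to noise over three replicate slides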
Details: fluorescence 635 nm, higher = more signal
Property Name: composite z-score
Please respond with just the number, no unit label.

Example compounds with recorded composite z-score:
1. C=CCNC(=O)[C@H]1[C@@H]2C(=O)O[C@@H](c3ccccc3)[C@@H](c3ccccc3)N2[C@@H](c2ccc(OCCO)cc2)[C@]12C(=O)Nc1ccc(C#CC3(O)CCCCCC3)cc12    0.721
2. COc1ccc(C(O)C2C=CC3C(=O)N(c4ccccc4)C(=O)C3N2Nc2ccc([N+](=O)[O-])cc2)c2ccccc12 (centres undefined)    0.308
3. CC(C)C(=C=CC[C@H](O)c1ccccc1OCCO)C[C@H](O)c1cc(Cl)cc(Cl)c1O    -0.114

[Q] Would you mind telling me what composite z-score value was observed for C=C(CCCC)C(=O)CC[C@@H](OC(=O)c1ccccc1-c1ccccc1C(=O)O)c1ccccc1OCCO ?
[A] 0.492

====

Assay: compounds binding Alexa647 anti-His antibody – biochemical, small-molecule microarray, 635 nm fluorescence, artefact control for SMM control protein annotation, primary screen (AID 1128);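 note: score merges feature fluorescence with signal-to-noise for each printed compound spot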
Conditions: higher = more signal
Entry flag: label 1 if composite z-score reaches 0.01; label 0 if it does not.

1) COC(=O)[C@@]1(Cc2ccc(OC)cc2)[C@H]2c3cc(C(=O)N4CCCC4)n(Cc4c(CO)[nH]cc(C)c4=O)c3C[C@H]2CN1C(=O)c1ccccc1    label 1
2) Cc1ccc(S[C@]2(C(=O)NCCCN(C)C)CC(=O)N(C3Cc4ccccc4C3)[C@@H]2c2ccc(CO)cc2I)cc1    label 1
3) CN1C(=O)[C@@H]2[C@@H](CC(COc3ccccc3)=C3[C@@H](CCc4ccccc4)OB(O)C[C@@H]32)C1=O    label 0
4) COC(=O)[C@@]1(Cc2ccc(F)cc2)[C@H]2c3cc(C(=O)N(C)C)n(CCc4ccc(O)c(O)c4)c3C[C@H]2CN1C(=O)c1ccccc1    label 0
5) O=C1O[C@@H](c2ccccc2)[C@@H](c2ccccc2)N2[C@@H](c3ccc(OCCO)cc3)[C@]3(C(=O)Nc4ccc(C#CC5(O)CCCCCC5)cc43)[C@@H](C(=O)Nc3nc4ccccc4s3)[C@H]12    label 1

API: the following record is the query input.
[Q] Decide: composite z-score of COc1ccc([Si](C)(C)[C@@H]2[C@@H](CC(=O)N(CCO)Cc3ccccc3)O[C@]3(C(=O)N(Cc4ccc(N5C(=O)c6cccc7cccc5c67)cc4)c4ccccc43)[C@H]2C)cc1 >= 0.01?
[A] label 1
